- System: K98450-129-R-PDC multicell spheroids, viability;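 also: spheroids exposed to agents for seven days before read-out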
- assay.summary: Anticancer human tumor K98450-129-R-PDC patient-derived colon adenocarcinoma cell line growth inhibition [PI3K]
- condition.set: second compound 0.316 µM; first compound 3 µM; active compounds read low
endpoint.label: viability, T/C (%)
Answer with a number only, understood to be in %.

Some compounds with recorded viability, T/C:
Give its viability, T/C value. Item: Cn1cnc2c(F)c(Nc3ccc(Br)cc3Cl)c(C(=O)NOCCO)cc21 + CC(Nc1ccc2c(c1)OCCn1cc(N3C(=O)OCC3C(F)F)nc1-2)C(N)=O
11.1

Give its viability, T/C value. Item: Cn1cnc2c(F)c(Nc3ccc(Br)cc3Cl)c(C(=O)NOCCO)cc21 + COc1c(OCCCN2CCOCC2)ccc2c3n(c(=NC(=O)c4cnc(N)nc4)nc12)CCN3
6.72

Give its viability, T/C value. Item: Cn1cnc2c(F)c(Nc3ccc(Br)cc3Cl)c(C(=O)NOCCO)cc21 + CC(Nc1ncnc2nc[nH]c12)c1cc2cccc(Cl)c2c(=O)n1-c1ccccc1
16

Please find the next compound below.
Give its viability, T/C value. Item: Cn1cnc2c(F)c(Nc3ccc(Br)cc3Cl)c(C(=O)NOCCO)cc21 + Cc1nc(NC(=O)N2CCCC2C(N)=O)sc1-c1ccnc(C(C)(C)C(F)(F)F)c1
11.2
